- system.tested: Androgen Receptor (Homo sapiens, UniProt P10275)
- Construct: endogenous in cells; host or cells: VCaP cells
- Sequence (P10275 whole entry): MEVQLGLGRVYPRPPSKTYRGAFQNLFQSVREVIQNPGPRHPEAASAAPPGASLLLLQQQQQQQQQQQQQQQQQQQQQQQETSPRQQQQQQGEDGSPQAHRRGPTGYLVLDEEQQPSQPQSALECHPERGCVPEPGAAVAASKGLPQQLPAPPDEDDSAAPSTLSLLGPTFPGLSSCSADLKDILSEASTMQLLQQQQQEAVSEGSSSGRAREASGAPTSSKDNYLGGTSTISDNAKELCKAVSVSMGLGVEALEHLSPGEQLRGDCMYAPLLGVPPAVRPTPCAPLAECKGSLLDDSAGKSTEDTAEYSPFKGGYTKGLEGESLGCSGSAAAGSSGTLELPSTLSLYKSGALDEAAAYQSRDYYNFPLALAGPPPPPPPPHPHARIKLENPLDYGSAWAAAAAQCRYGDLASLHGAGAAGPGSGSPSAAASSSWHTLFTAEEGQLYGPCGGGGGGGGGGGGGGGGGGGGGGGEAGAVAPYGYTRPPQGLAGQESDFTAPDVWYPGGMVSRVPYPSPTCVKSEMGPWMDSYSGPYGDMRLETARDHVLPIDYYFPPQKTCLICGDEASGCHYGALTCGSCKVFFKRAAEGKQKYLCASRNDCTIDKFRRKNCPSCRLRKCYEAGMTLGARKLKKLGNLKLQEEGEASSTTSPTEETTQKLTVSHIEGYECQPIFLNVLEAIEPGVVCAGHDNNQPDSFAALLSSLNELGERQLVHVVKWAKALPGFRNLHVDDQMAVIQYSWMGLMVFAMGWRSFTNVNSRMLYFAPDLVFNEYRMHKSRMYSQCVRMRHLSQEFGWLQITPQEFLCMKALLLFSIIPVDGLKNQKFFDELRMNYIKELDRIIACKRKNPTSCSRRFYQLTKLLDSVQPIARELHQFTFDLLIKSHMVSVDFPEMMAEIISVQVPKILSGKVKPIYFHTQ
- method: Androgen Receptor ELISA assay (PathScan AR ELISA) in VCaP cells: AR degradation, Dmax and DC50
- Assay type: cell-based
- condition.parameters: VCaP, read-out: VCaP Dmax (%)
measured.property: Dmax

Answered cases to consult:
[[record]]
compound = "Cc1ncsc1-c1ccc([C@H](C)NC(=O)[C@@H]2C[C@@H](O)CN2C(=O)[C@@H](NC(=O)CN2C3CCC2CN(CCCc2ccc(C(=O)N[C@H]4C(C)(C)[C@H](Oc5ccc(C#N)c(Cl)c5)C4(C)C)cn2)C3)C(C)(C)C)cc1"
experimental_result = "51 to 70%"

[[record]]
compound = "Cc1ncsc1-c1ccc(CNC(=O)[C@@H]2C[C@@H](O)CN2C(=O)[C@@H](NC(=O)COCCC(O)COc2ccc(-c3ccc(N4C(=S)N(c5ccc(C#N)c(C(F)(F)F)c5)C(=O)C4(C)C)cc3)cc2)C(C)(C)C)cc1 (stereo partly shown)"
experimental_result = "51 to 70%"

[[record]]
compound = "Cc1ncsc1-c1ccc(CNC(=O)[C@@H]2C[C@@H](O)CN2C(=O)[C@@H](NC(=O)CCOCCOc2ccc(-c3ccc(N4C(=S)N(c5ccc(C#N)c(C(F)(F)F)c5)C(=O)C4(C)C)cc3)cn2)C(C)(C)C)cc1"
experimental_result = "26 to 50%"


QUERY: Fill in: Dmax of `Cc1ncsc1-c1ccc(CNC(=O)[C@@H]2C[C@@H](O)CN2C(=O)[C@@H](NC(=O)COCCCOCCCCOc2ccc(N3C(=S)N(c4ccc(C#N)c(C(F)(F)F)c4)C(=O)C34CCOCC4)cc2)C(C)(C)C)cc1` is ___
RESULT: 51 to 70%

###

For each entry below, report its DC50 value.
- system.tested: Androgen Receptor (Homo sapiens, UniProt P10275)
- Construct: endogenous in cells; host or cells: VCaP cells
- method: Androgen Receptor ELISA assay (PathScan AR ELISA) in VCaP cells: AR degradation, Dmax and DC50
- Assay type: cell-based
- condition.parameters: read-out: VCaP DC50; VCaP cells; Table 36

[[record]]
structure = "Cc1ncsc1-c1ccc([C@H](C)NC(=O)[C@@H]2C[C@@H](O)CN2C(=O)[C@H](C(C)C)n2cc(-c3ccnc(N4CC[C@H](Oc5ccc(N6C(=S)N(c7ccc(C#N)c(C(F)(F)F)c7)C(=O)C6(C)C)cc5)C4)c3)cn2)cc1"
experimental_result = "> 501 nM"


Shifting focus to the compound that follows.
QUERY: Param readout= DC50; system= Androgen Receptor (Homo sapiens, UniProt P10275); entry= `Cc1ncsc1-c1ccc([C@H](C)NC(=O)[C@@H]2C[C@@H](O)CN2C(=O)[C@@H](NC(=O)COCCN2C[C@H]3C[C@@H]2CN3c2ccc(C(=O)N[C@H]3C(C)(C)[C@H](Oc4ccc(C#N)c(Cl)c4)C3(C)C)cn2)C(C)(C)C)cc1` ; returns value.
RESULT: < 50 nM

###

For each entry below, report its Dmax value.
- system.tested: Androgen Receptor (Homo sapiens)
- Construct: endogenous in cells; host or cells: VCaP cells
- method: Androgen Receptor ELISA assay (PathScan AR ELISA) in VCaP cells: AR degradation, Dmax and DC50
- Assay type: cell-based
- condition.parameters: VCaP, read-out: VCaP Dmax (%)

[[record]]
compound = "Cc1ncsc1-c1ccc([C@H](C)NC(=O)[C@@H]2C[C@@H](O)CN2C(=O)[C@@H](NC(=O)COCCCOCCCCCNc2ccc(N3C(=S)N(c4ccc(C#N)c(C(F)(F)F)c4)C(=O)C3(C)C)cn2)C(C)(C)C)cc1"
experimental_result = "51 to 70%"

[[record]]
compound = "Cc1ncsc1-c1ccc([C@H](C)NC(=O)[C@@H]2CC3CN2C(=O)C(C(C)(C)C)NC(=O)COCCCOCCC(CCOc2ccc(N4C(=S)N(c5ccc(C#N)c(C(F)(F)F)c5)C(=O)C4(C)C)cc2)OC(=O)CC/C=C/CCC(=O)O3)cc1 (stereo partly shown)"
experimental_result = "< 25%"

[[record]]
compound = "Cc1ncsc1-c1ccc([C@H](C)NC(=O)C2C[C@@H](O)CN2C(=O)[C@@H](NC(=O)CN2CCN(CCC3(c4ccc(C(=O)N[C@H]5C(C)(C)[C@H](Oc6ccc(C#N)c(C(F)(F)F)c6)C5(C)C)cc4)COC3)CC2)C(C)(C)C)cc1 (stereo partly shown)"
experimental_result = "51 to 70%"

[[record]]
compound = "Cc1ncsc1-c1ccc(CNC(=O)[C@@H]2C[C@@H](O)CN2C(=O)[C@@H](NC(=O)C(C)Oc2ccc(OCCOc3ccc(N4C(=S)N(c5ccc(C#N)c(C(F)(F)F)c5)C(=O)C4(C)C)cc3)cc2)C(C)(C)C)cc1 (stereo partly shown)"
experimental_result = "26 to 50%"

[[record]]
compound = "Cc1ncsc1-c1ccc([C@H](C)NC(=O)[C@@H]2C[C@@H](O)CN2C(=O)[C@@H](C(C)C)N2Cc3ccc(N4CCN(CCCc5ccc(C(=O)N[C@H]6C(C)(C)[C@H](Oc7ccc(C#N)c(Cl)c7)C6(C)C)cc5)CC4)cc3C2=O)cc1"
experimental_result = "< 25%"

[[record]]
compound = "Cc1ncsc1-c1ccc([C@H](C)NC(=O)[C@@H]2C[C@@H](O)CN2C(=O)[C@@H](NC(=O)COc2ccc(OC3CCN(c4ccc(N5C(=S)N(c6ccc(C#N)c(C(F)(F)F)c6)C(=O)C5(C)C)cn4)CC3)nc2)C(C)(C)C)cc1"
experimental_result = "26 to 50%"

[[record]]
compound = "Cc1nccn1-c1ccc(C(C)NC(=O)C2CC(O)CN2C(=O)C(C(C)C)n2cc(-c3ccc(OC4CCN(c5ccc(N6C(=S)N(c7ccc(C#N)c(C(F)(F)F)c7)C(=O)C6(C)C)cn5)CC4)nc3)cn2)cc1 (stereo not shown)"
experimental_result = "< 25%"

[[record]]
compound = "Cc1ncsc1-c1ccc(CNC(=O)[C@@H]2C[C@@H](O)CN2C(=O)[C@H](C(C)C)N2Cc3c(CCCOCCOc4ccc(N5C(=S)N(c6ccc(C#N)c(C(F)(F)F)c6)C(=O)C5(C)C)cc4)cccc3C2=O)cc1"
experimental_result = "26 to 50%"

[[record]]
compound = "Cc1ncsc1-c1ccc([C@H](C)NC(=O)[C@@H]2C[C@@H](O)CN2C(=O)[C@@H](NC(=O)COCCCCOCCCCOc2ccc(N3C(=S)N(c4ccc(C#N)c(C(F)(F)F)c4)C(=O)C3(C)C)cc2F)C(C)(C)C)cc1"
experimental_result = "51 to 70%"

[[record]]
compound = "Cc1ncsc1-c1ccc([C@H](C)NC(=O)[C@@H]2C[C@@H](O)CN2C(=O)[C@@H](NC(=O)COCCCCOc2ccc(-c3ccc(N4C(=S)N(c5ccc(C#N)c(C(F)(F)F)c5)C(=O)C4(C)C)c(F)c3)cc2)C(C)(C)C)cc1"
experimental_result = "> 71%"


The following compounds each have a reported value; give each one's Dmax.
1. Cc1ncsc1-c1ccc([C@H](C)NC(=O)[C@@H]2C[C@@H](O)CN2C(=O)[C@@H](NC(=O)CN[C@H]2C[C@H](OC3CCN(c4ccc(C(=O)N[C@H]5C(C)(C)[C@H](Oc6ccc(C#N)c(Cl)c6)C5(C)C)cn4)CC3)C2)C(C)(C)C)cc1
2. CC(C)(C)[C@H](NC(=O)COCCCCOc1ccc(-c2ccc(N3C(=S)N(c4ccc(C#N)c(Cl)c4)C(=O)C3(C)C)c(F)c2)cc1)C(=O)N1C[C@H](O)C[C@H]1C(=O)NCc1ccc(-c2cncs2)cc1
3. Cc1ncsc1-c1ccc(CNC(=O)[C@@H]2C[C@@H](O)CN2C(=O)[C@@H](NC(=O)COCCCCCOCCCOc2ccc(N3C(=S)N(c4ccc(C#N)c(C(F)(F)F)c4)C(=O)C3(C)C)cc2)C(C)(C)C)cc1
4. Cc1nccn1-c1ccc([C@H](C)NC(=O)[C@@H]2C[C@@H](O)CN2C(=O)C(C(C)C)n2cc(OCCCOCCCCCOc3ccc(N4C(=S)N(c5ccc(C#N)c(C(F)(F)F)c5)C(=O)C4(C)C)cc3)cn2)nc1 (mixture of isomers)
5. CC(C)(C)[C@H](NC(=O)COCCCCOc1ccc(-c2ccc(N3C(=S)N(c4ccc(C#N)c(C(F)(F)F)c4)C(=O)C3(C)C)cc2)cc1)C(=O)N1C[C@H](O)C[C@H]1C(=O)NCc1ccc(-c2cnco2)cc1
6. Cc1ncsc1-c1ccc(CNC(=O)[C@@H]2C[C@@H](O)CN2C(=O)[C@@H](NC(=O)COCCC2CCN(CCOc3ccc(N4C(=S)N(c5ccc(C#N)c(C(F)(F)F)c5)C(=O)C4(C)C)cc3)CC2)C(C)(C)C)cc1

RESULT:
1. > 71%
2. > 71%
3. 26 to 50%
4. < 25%
5. 51 to 70%
6. 26 to 50%
